# system tested: ALKBH3 (Homo sapiens)
# test protocol: Inhibition constant
# Format: biochemical
# test settings: ALKBH3, ss-m3C, versus αKG, 37 °C
# Ki annotations
property label: Ki

INSERT INTO measurements (compound, data_value) VALUES
  ('O=C(O)CC[C@@H](O)C(=O)O [D-2HG, D-2-hydroxyglutarate]', '490 µM'),
  ('O=C(O)CC[C@H](O)C(=O)O [L-2HG, L-2-hydroxyglutarate]', '228 µM');

----------
# system tested: AlkB (Escherichia coli)
# test protocol: Inhibition constant
# Type: biochemical
pKi: −log10 of the molar value.
property label: pKi

INSERT INTO results (compound, data_value) VALUES
  ('O=C(O)CNC(=O)C(=O)O [N-OG, N-oxalylglycine, reference compound]', 5.70);

----------
# system tested: ALKBH3 (Homo sapiens, UniProt Q96Q83)
# test protocol: Inhibition constant
# Assay type: biochemical
# test settings: Ki, ALKBH3, ss-m3C, versus αKG, 37 °C
property label: Ki (µM)

INSERT INTO measurements (compound, property_label, unit_abbrev, data_value) VALUES
  ('O=C(O)CNC(=O)C(=O)O [N-OG, N-oxalylglycine, reference compound]', 'Ki', 'µM', 37);

----------
# system tested: AlkB (Escherichia coli, UniProt P05050)
# Sequence (P05050 whole entry): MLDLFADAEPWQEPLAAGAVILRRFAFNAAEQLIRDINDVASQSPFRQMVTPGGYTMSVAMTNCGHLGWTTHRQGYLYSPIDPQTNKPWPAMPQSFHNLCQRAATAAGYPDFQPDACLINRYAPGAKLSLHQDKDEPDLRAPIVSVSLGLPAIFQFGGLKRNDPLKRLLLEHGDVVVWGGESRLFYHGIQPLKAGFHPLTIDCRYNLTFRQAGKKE
# test protocol: Inhibition constant
# Format: biochemical
# test settings: AlkB, ds-m3C, versus αKG, 37 °C
pKi: −log10 of the molar value.
property label: pKi

INSERT INTO measurements (compound, system_tested, data_value) VALUES
  ('O=C(O)CC[C@H](O)C(=O)O [L-2HG, L-2-hydroxyglutarate]', 'AlkB (Escherichia coli, UniProt P05050)', 3.51),
  ('O=C(O)CC[C@@H](O)C(=O)O [D-2HG, D-2-hydroxyglutarate]', 'AlkB (Escherichia coli, UniProt P05050)', 3.64);

----------
# system tested: ALKBH2 (Homo sapiens, UniProt Q6NS38)
# Sequence (Q6NS38 1-261): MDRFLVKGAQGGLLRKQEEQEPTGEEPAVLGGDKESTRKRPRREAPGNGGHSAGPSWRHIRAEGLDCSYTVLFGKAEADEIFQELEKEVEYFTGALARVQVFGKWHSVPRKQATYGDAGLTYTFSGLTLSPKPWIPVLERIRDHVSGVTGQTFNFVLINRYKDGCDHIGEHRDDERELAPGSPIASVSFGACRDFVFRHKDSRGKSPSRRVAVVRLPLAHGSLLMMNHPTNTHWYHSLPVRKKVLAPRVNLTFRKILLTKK
# test protocol: Inhibition constant
# Assay type: biochemical
# test settings: Ki, ALKBH2, ds-m1A, versus αKG, 37 °C
property label: Ki (µM)

INSERT INTO results (compound, unit_abbrev, data_value) VALUES
  ('O=C(O)CNC(=O)C(=O)O [N-OG, N-oxalylglycine, reference compound]', 'µM', 16);

----------
# Ki annotations
# system tested: AlkB (Escherichia coli)
# test protocol: Inhibition constant
# Assay type: biochemical
# test settings: AlkB, ds-m1A, versus αKG, 37 °C
property label: Ki

INSERT INTO results (compound, data_value) VALUES
  ('O=C(O)CC[C@@H](O)C(=O)O [D-2HG, D-2-hydroxyglutarate]', '529 µM'),
  ('O=C(O)CC[C@H](O)C(=O)O [L-2HG, L-2-hydroxyglutarate]', '598 µM');

----------
# system tested: UniProt Q96Q83
# test protocol: Inhibition constant
# Assay type: biochemical
# test settings: Ki, ALKBH3, ss-m1A, versus αKG, 37 °C
property label: Ki (µM)

INSERT INTO assay_data (molecule, data_value) VALUES
  ('O=C(O)CNC(=O)C(=O)O [N-OG, N-oxalylglycine, reference compound]', 27);

----------
# system tested: ALKBH2 (Homo sapiens, UniProt Q6NS38)
# test protocol: Inhibition constant
# Type: biochemical
# test settings: Ki, ALKBH2, ds-m3C, versus αKG, 37 °C
pKi: −log10 of the molar value.
property label: pKi

INSERT INTO results (compound, data_value) VALUES
  ('O=C(O)CNC(=O)C(=O)O [N-OG, N-oxalylglycine, reference compound]', 5.15);

----------
# system tested: ALKBH2 (Homo sapiens)
# test protocol: Inhibition constant
# Format: biochemical
# test settings: Ki, ALKBH2, ss-m1A, versus αKG, 37 °C
property label: Ki (µM)

INSERT INTO measurements (compound, property_label, unit_abbrev, data_value) VALUES
  ('O=C(O)CNC(=O)C(=O)O [N-OG, N-oxalylglycine, reference compound]', 'Ki', 'µM', 30);

----------
# system tested: AlkB (Escherichia coli, UniProt P05050)
# test protocol: Inhibition constant
# Type: biochemical
# test settings: Ki, AlkB, ss-m1A, versus αKG, 37 °C
property label: Ki (nM)

INSERT INTO measurements (molecule, property_label, data_value) VALUES
  ('O=C(O)CNC(=O)C(=O)O [N-OG, N-oxalylglycine, reference compound]', 'Ki', 400);

----------
# system tested: ALKBH3 (Homo sapiens, UniProt Q96Q83)
# Sequence (Q96Q83 1-286): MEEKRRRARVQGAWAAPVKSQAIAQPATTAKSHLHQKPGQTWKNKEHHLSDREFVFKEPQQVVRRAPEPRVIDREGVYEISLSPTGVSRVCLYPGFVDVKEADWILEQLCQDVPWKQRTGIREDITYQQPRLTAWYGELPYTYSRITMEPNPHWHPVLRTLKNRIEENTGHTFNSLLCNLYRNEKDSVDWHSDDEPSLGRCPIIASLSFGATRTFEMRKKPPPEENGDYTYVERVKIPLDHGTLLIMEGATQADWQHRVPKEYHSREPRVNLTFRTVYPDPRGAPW
# test protocol: Inhibition constant
# Assay type: biochemical
# test settings: ALKBH3, ss-m1A, versus αKG, 37 °C
pKi: −log10 of the molar value.
# pKi annotations
property label: pKi

INSERT INTO assay_data (compound, data_value) VALUES
  ('O=C(O)CC[C@H](O)C(=O)O [L-2HG, L-2-hydroxyglutarate]', 3.73),
  ('O=C(O)CC[C@@H](O)C(=O)O [D-2HG, D-2-hydroxyglutarate]', 3.26);

----------
# system tested: ALKBH2 (Homo sapiens, UniProt Q6NS38)
# test protocol: Inhibition constant
# Format: biochemical
# test settings: Ki, ALKBH2, ss-m3C, versus αKG, 37 °C
pKi: −log10 of the molar value.
property label: pKi

INSERT INTO measurements (compound, data_value) VALUES
  ('O=C(O)CNC(=O)C(=O)O [N-OG, N-oxalylglycine, reference compound]', 4.40);

----------
# system tested: AlkB (Escherichia coli)
# test protocol: Inhibition constant
# Type: biochemical
# test settings: AlkB, ss-m1A, versus αKG, 37 °C
property label: Ki (µM)

INSERT INTO measurements (molecule, property_label, data_value) VALUES
  ('O=C(O)CC[C@@H](O)C(=O)O [D-2HG, D-2-hydroxyglutarate]', 'Ki', 571),
  ('O=C(O)CC[C@H](O)C(=O)O [L-2HG, L-2-hydroxyglutarate]', 'Ki', 337);
